- METHOD SUMMARY: soluble on expression in E. coli; label from the status in PepcDB or PDB records

- SEQUENCE CODE: "WSKIEKEQFYIAICAMNKTIAQKLFVLMKKAKKWLLQPDVRELKRFSIIDQKQLIYSYLIYHKINVNGEKIDAILDFIQPSQQKQYRLQNDIFLMVKNQCLALLYK"
  soluble on expression in E. coli: "soluble"
- SEQUENCE CODE: "MAHHHHHHMQPRHFHVCNFLLTCSCERGHPRVRCLRFAALRFAKPHFALLCRTSLCFFFATPTRAELATDGLKGRIYEVNLADLNNDEDQAHKKIKLCCDHIINKDCYTDFCGLSITRDKLCSLIRKGYTLIEGYTDVKTIDNYQLRMFCIAFTKKRPNQTKTTCYAQTSQIKKIRKKMVDIMNAEASKVMLKDLVKKFIPESIGKEVEKQCKKIYPLQNVLIRKVKILKRPKLDISKLMELHTDSKEDAGKNVKSLPESKEATNILSAELKH"
  soluble on expression in E. coli: "soluble"
